Reported growth values are given for each entry in this list.
Test system: EKVX NSCLC
assay_info: NCI-60 one-dose screen, 48 h (100 = growth as untreated, 0 = no growth, -100 = all killed)
run_parameters: 10 µM unless noted
This is part of a sample that, as a whole, favours compounds with a hit. Of some 83,000 tested, about 20% had one in any assay.
quantity: growth (%)

> print(dat)
                                   molecule  result.units  observed
1  Cc1cc(C)c(S(=O)(=O)Oc2ccccc2[N+](=O)[O-])c(C)c1             %      48.2
2    COc1ccc(C(=O)c2cc(OC)c(OC)c(OC)c2)cc1O             %      43.8
3  Cn1ccnc1C(=O)/C=C/c1ccc(CC(=O)Nc2ccc(F)cc2)cc1             %      57.9
4  N#CC1C(C#N)C2c3ccccc3C=CN2C1C(=O)c1ccc(Br)cc1 (stereo not given)             %        93
5  O=C(Cn1c[n+](CC(=O)c2ccc(-c3ccccc3)cc2)c2ccccc21)Nc1cccc2cccnc12             %      47.6

----------
System: HOP-92 NSCLC
assay_info: NCI-60 one-dose screen, 48 h
run_parameters: 10 µM unless noted
This is part of a sample that, as a whole, favours compounds with a hit. Of some 83,000 tested, about 20% had one in any assay. Active and inactive are the calls of the source. How the source made its calls: active means growth percent below 10; inactive means the rest.
Classes used: true (1) = active, false (0) = inactive

> print(dat)
                                    compound  assigned.label
 1  COC(=O)N[C@H]1CCc2c(Cl)c(OC)c(OC)c(OC)c2-c2ccc(SC)c(=O)cc21        true (1)
 2  O=C1/C=C/[C@@H](O)[C@@H]2C[C@@H](O)C[C@H]2/C=C/CCC[C@H](CCc2ccc3ncccc3c2)O1       false (0)
 3  COc1cc(OC)cc(C(=O)C[n+]2cccc3cc[nH]c32)c1       false (0)
 4  Clc1ccc(-c2ccc(CNCC3CCNCC3)o2)c(-c2ccccc2)c1        true (1)
 5       N#Cc1c(NC(=O)NCc2ccccc2)sc2c1CCCCC2       false (0)
 6  Cc1cc2c(C(=O)NCC#N)cccc2n1-c1nc2c(c(NCc3ccccc3)n1)CCCC2        true (1)
 7  COc1cc(C2C3=C(COC3=O)N(CCO)c3cc4c(cc32)OCO4)cc(OC)c1OC (centres undefined)       false (0)
 8  CNCCOc1nc2c3cnccc3cc(-c3cc(OC)c(OC)c(OC)c3)c2c2ccncc12        true (1)
 9  Cn1cc(-c2nc(-c3c[nH]c4c(Cl)nccc34)cs2)c2cc(F)ccc21       false (0)
10  CCCCCCNC(=O)Oc1ccc(/C(=C(\C)c2ccccc2)c2ccc(OCCN3CCCCC3)cc2)cc1       false (0)
11  O=C(c1nc2ccccc2[nH]1)C1C(c2ccc(Br)cc2)C2CC3CCCC[C@H]3N2[C@@]12C(=O)Nc1cc(Cl)ccc12 (some centres undefined)       false (0)
12  Cc1ccc(-n2nc3c(c(C#N)c2=O)CC(c2ccccc2[N+](=O)[O-])C([N+](=O)[O-])=C3O)cc1 (centres undefined)       false (0)
13  O=C1Nc2ccccc2/C1=C\c1c(-c2ccccc2)nc2ccccn12       false (0)
14  O=C(Cc1ccc(/C=C/C(=O)c2ncc[nH]2)cc1)Nc1ccc(Cl)cc1       false (0)
15  O=C1c2ccc3c4c(ccc(c24)C(=O)N1CCCNCc1ccccc1Cl)C(=O)N(CCCNCc1ccccc1Cl)C3=O        true (1)
16  O=S(=O)(NCCCNc1nccc(-c2c(-c3cccc(F)c3)nc3sccn23)n1)c1cccc2ccccc12       false (0)
17  CCNc1nc2ccc(Nc3ccnc4cc(Cl)ccc34)cc2[nH]1       false (0)
18  CC(=O)[C@@H]1CC[C@]2(CO)CC[C@]3(C)[C@H](CC[C@@H]4[C@@]5(C)CCCNC(C)(C)[C@@H]5CC[C@]43C)[C@@H]12       false (0)
19  CCN(c1ccccc1)S(=O)(=O)c1cc([N+](=O)[O-])ccc1Cl       false (0)
